Recorded values, source BindingDB's records for doi:10.1016/j.chembiol.2017.02.003.

Sequence of the target: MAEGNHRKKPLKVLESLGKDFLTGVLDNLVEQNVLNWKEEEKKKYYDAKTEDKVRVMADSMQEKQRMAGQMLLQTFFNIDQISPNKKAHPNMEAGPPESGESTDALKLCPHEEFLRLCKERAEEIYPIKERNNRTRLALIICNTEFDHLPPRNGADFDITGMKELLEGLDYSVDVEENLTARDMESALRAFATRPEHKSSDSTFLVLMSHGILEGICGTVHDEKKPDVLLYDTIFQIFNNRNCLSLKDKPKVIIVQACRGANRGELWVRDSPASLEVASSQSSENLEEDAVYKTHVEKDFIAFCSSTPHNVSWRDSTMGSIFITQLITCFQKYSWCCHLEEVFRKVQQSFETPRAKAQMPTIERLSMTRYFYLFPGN
testReadout: IC50 (µM)

molecule | IC50 / µM
CC(C(=O)O)c1ccc(C(=O)c2ccccc2)s1 (centres undefined) | 0.38
CC(C(=O)O)c1cccc(C(=O)c2ccccc2)c1 (centres undefined) | 10

P = O=C(O)CCC(=O)c1ccc(-c2ccccc2)cc1
Q = O=C(c1ccccc1)c1ccc2n1CCC2C(=O)O (centres undefined)
query: I'd appreciate it if you could identify which of P and Q has the greater IC50. Refer to your chosen item by its label in the answer.
result: Q

---

Target protein (sequence): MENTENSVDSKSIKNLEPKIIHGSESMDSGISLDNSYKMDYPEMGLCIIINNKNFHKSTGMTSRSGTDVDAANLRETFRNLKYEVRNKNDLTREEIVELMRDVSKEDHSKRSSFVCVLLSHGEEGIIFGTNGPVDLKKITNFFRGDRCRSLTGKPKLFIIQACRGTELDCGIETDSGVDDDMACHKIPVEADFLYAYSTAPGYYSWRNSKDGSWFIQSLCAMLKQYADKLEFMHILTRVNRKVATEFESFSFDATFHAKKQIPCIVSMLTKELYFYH
pIC50: −log10 of the molar value.
testReadout: pIC50

Example entries begin here.
molecule | pIC50
CC(C(=O)O)c1cccc(C(=O)c2ccccc2)c1 (centres undefined) [2-(3-benzoylphenyl)propanoic acid] | 4.30
O=C(O)Cc1ccc(-c2ccccc2)cc1 [Felbinac] | 4.85

1 = O=C(c1ccccc1)c1ccc2n1CCC2C(=O)O (centres undefined) [Toradol]
2 = CC(C(=O)O)c1ccc(N2Cc3ccccc3C2=O)cc1 (centres undefined)
query: Would you mind telling me which has the lower recorded pIC50 between 1 and 2 ? Refer to your chosen item by its label in the answer.
result: 1

---

# studySystem: Caspase-9 (Homo sapiens)
# Sequence (P55211 whole entry): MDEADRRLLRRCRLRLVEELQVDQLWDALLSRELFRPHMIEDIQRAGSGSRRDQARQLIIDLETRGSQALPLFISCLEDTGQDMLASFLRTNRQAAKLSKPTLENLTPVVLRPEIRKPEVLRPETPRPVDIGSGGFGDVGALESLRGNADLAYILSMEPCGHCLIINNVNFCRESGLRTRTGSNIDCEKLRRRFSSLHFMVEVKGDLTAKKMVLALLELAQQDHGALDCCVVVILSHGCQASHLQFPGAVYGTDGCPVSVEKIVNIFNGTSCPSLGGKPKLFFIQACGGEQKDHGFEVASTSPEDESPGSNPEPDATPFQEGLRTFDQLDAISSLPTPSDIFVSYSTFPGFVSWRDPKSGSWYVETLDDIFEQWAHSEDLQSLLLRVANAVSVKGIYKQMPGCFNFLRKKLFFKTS
testReadout: IC50 (µM)

Example entries begin here.
compound | IC50 / µM
O=C(O)CCC(=O)c1ccc(-c2ccccc2)cc1 | 0.76
CC(C(=O)O)c1cccc(C(=O)c2ccccc2)c1 (stereo unspecified) | 10

P = COc1ccc2cc([C@H](C)C(=O)O)ccc2c1
Q = O=C(c1ccccc1)c1ccc2n1CCC2C(=O)O (stereo unspecified)
R = O=C(O)Cc1ccc(-c2ccccc2)cc1
S = CC(C(=O)O)c1ccc(N2Cc3ccccc3C2=O)cc1 (stereo unspecified)
query: # rank by IC50, ascending (min first) Put the labels in the requested order and list them out.
result: S, Q, R, P
